ASSAY EXPLANATION: NCI Yeast Anticancer Drug Screen. Data for the sgs1 mgt1 strain (AID 161)
MEASUREMENT CONTEXT: S. cerevisiae sgs1 mgt1 strain, at 50.0 µM
This is part of a sample that, as a whole, favours compounds with a hit. Of some 79,000 tested, about 15% had one in any assay. The source made the active and inactive calls. Rule as the data show it: active = growth inhibition above about 70%; inactive = the rest.
Return exactly one item of YES = active, NO = inactive

# COMPOUND, CLASSIFICATION
records = [
    ("CCOC1([N+](=O)[O-])c2ccccc2-c2nc3ccccc3cc21 (configuration not stated)", "YES"),
    ("CCc1ccc(CC)c(OC)c1", "NO"),
    ("NC(CSSCC(N)Cc1ccccc1)Cc1ccccc1 (configuration not stated)", "NO"),
]

# outcome recorded in this test, key = `FC(F)(F)C(F)(F)c1nc(C(F)(F)C(F)(F)C(F)(F)c2noc(C(F)(F)C(F)(F)F)n2)no1` NO

# outcome recorded in this test, key = COc1cc(C2(C)OC(=O)c3ccccc32)c(OC)c2ccccc12 (configuration not stated) NO

# outcome recorded in this test, key = `Nc1nc(C2CCCC2)c(Br)c(=O)[nH]1` NO

# outcome recorded in this test, key = FC1=C2C3CCC(C3)C2C1(F)F (configuration not stated) NO

# outcome recorded in this test, key = `COc1ccc(Nc2cc(N)nc(N)n2)c(=S)[nH]1` NO

# outcome recorded in this test, key = `Cc1cccc(C(=O)c2ccc(C)cc2C)c1` NO

# outcome recorded in this test, key = `Nc1c(Cl)ncnc1NCCCCCO` NO

# outcome recorded in this test, key = `CN(C)CCCN1CCC2(CCC(C(C)(C)C)CC2)CC1` NO

# outcome recorded in this test, key = `O=C(Nc1ccc(S(=O)(=O)N2CCCCC2)cc1)OC(c1ccccc1)c1ccccc1` NO

# outcome recorded in this test, key = `O=C(O)c1cc(Br)ccc1[N+](=O)[O-]` NO

# outcome recorded in this test, key = COc1cc2c(cc1C(C)c1ccc(OCc3ccccc3)cc1)OCO2 (configuration not stated) NO

# outcome recorded in this test, key = `O=C(Nc1cccc(O)c1)c1ccccc1Cl` NO

# outcome recorded in this test, key = Cc1ccc(S(=O)(=O)OCC2CC=CCC2COC(=O)c2ccc([N+](=O)[O-])cc2)cc1 (configuration not stated) NO

# outcome recorded in this test, key = Cc1cc2nc(N3CCOCC3)n(C3OC(CO)C(O)C3O)c2cc1C (configuration not stated) NO

# outcome recorded in this test, key = `COCCCNC(=O)c1nc2ccccc2c(=O)n1NC(=O)Cc1ccccc1` NO

# outcome recorded in this test, key = CCOC(=O)C1=C(C)N(Cc2ccccc2)C2(O)C1=CC(=O)C(Cl)=C2Cl (configuration not stated) NO

# outcome recorded in this test, key = CN1N(c2ccccc2)C(=O)C2=NC=C(C(=O)c3ccccc3)C(=N)C21C (configuration not stated) NO

# outcome recorded in this test, key = `Cn1c2ccccc2c(=O)c2c(O)cc3c(c21)C=CC1(CCCCC1)O3` NO

# outcome recorded in this test, key = CCCCCCC(C)OC(C)=O (configuration not stated) NO
